Test system: Trypanosoma brucei rhodesiense
Assay: Antitrypanosomal activity against Trypanosoma brucei rhodesiense STIB900 infected in NMRI mouse assessed as mean parasitemia relaps day at 5 mg/kg, ip
Type: functional
Conditions: route intraperitoneal
Would you mind labelling by Activity? At or over 20 days is satisfied, under is not satisfied.

INSERT INTO assay_data (sample_smiles, category) VALUES
  ('COc1cc(C(=N)N)ccc1-c1cn(-c2ccc(C(=N)N)cc2)nn1.Cl.Cl', 'satisfied'),
  ('COc1ccc(C(=N)N)cc1-n1cc(-c2ccc(C(=N)N)cc2)nn1.Cl.Cl', 'satisfied'),
  ('Cl.Cl.N=C(N)c1cccc(-n2cc(-c3cc(C(=N)N)ccc3O)nn2)c1', 'not satisfied'),
  ('Cl.Cl.Oc1cc(C2=NCCN2)ccc1-c1cn(-c2ccc(C3=NCCN3)cc2)nn1', 'not satisfied'),
  ('Cl.Cl.N=C(N)c1ccc(-n2cc(-c3cccc(C(=N)N)c3)nn2)cc1', 'not satisfied'),
  ('CC(C)NC(=N)c1ccc(-n2cc(-c3cc(C(=N)NC(C)C)ccc3O)nn2)cc1.Cl', 'satisfied'),
  ('Cl.Cl.N=C(N)c1cccc(-c2cn(-c3cccc(C(=N)N)c3)nn2)c1', 'not satisfied'),
  ('Cl.Cl.Oc1ccc(C2=NCCN2)cc1-c1cn(-c2ccc(C3=NCCN3)cc2)nn1', 'not satisfied'),
  ('Cl.Cl.N=C(N)c1cccc(-c2cn(-c3ccc(C(=N)N)cc3O)nn2)c1', 'not satisfied'),
  ('COc1cc(C(=N)N)ccc1-n1cc(-c2ccc(C(=N)N)cc2)nn1.Cl.Cl', 'satisfied'),
  ('Cl.Cl.N=C(N)c1ccc(-c2cn(-c3cccc(C(=N)N)c3)nn2)cc1', 'not satisfied');

====

System: Mus musculus
Test: Toxicity in NMRI mouse infected with Trypanosoma brucei rhodesiense STIB900 assessed as survival at 5 mg/kg, ip after administered for 4 consecutive days from day 3 postinfection measured after 7 to 30 days
Format: organism-based
Parameters: dose 5 mg/kg, route intraperitoneal
Settings: in vivo
recorded metric: Activity

INSERT INTO assay_data (sample_smiles, target_entity, measurement) VALUES
  ('COc1ccc(C(=N)N)cc1-n1cc(-c2cccc(C(=N)N)c2)nn1.Cl.Cl', 'Mus musculus', 'Toxic'),
  ('Cl.Cl.Oc1ccc(C2=NCCN2)cc1-c1cn(-c2ccc(C3=NCCN3)cc2)nn1', 'Mus musculus', 'Toxic'),
  ('Cl.Cl.N=C(N)c1cccc(-c2cn(-c3ccc(C(=N)N)cc3O)nn2)c1', 'Mus musculus', 'Toxic'),
  ('COc1cc(C(=N)N)ccc1-c1cn(-c2cccc(C(=N)N)c2)nn1.Cl.Cl', 'Mus musculus', 'Non-toxic'),
  ('CC(C)NC(=N)c1ccc(-n2cc(-c3cc(C(=N)NC(C)C)ccc3O)nn2)cc1.Cl', 'Mus musculus', 'Toxic'),
  ('COc1cc(C(=N)N)ccc1-n1cc(-c2cccc(C(=N)N)c2)nn1.Cl.Cl', 'Mus musculus', 'Toxic'),
  ('COc1ccc(C2=NCCN2)cc1-c1cn(-c2ccc(C3=NCCN3)cc2)nn1.Cl.Cl', 'Mus musculus', 'Toxic'),
  ('COc1ccc(C2=NCCN2)cc1-c1cn(-c2cccc(C3=NCCN3)c2)nn1.Cl.Cl', 'Mus musculus', 'Non-toxic'),
  ('Cl.Cl.N=C(N)c1ccc(-n2cc(-c3ccc(C(=N)N)cc3O)nn2)cc1', 'Mus musculus', 'Non-toxic'),
  ('Cl.Cl.N=C(N)c1cccc(-c2cn(-c3cccc(C(=N)N)c3)nn2)c1', 'Mus musculus', 'Toxic'),
  ('Cl.Cl.Oc1cc(C2=NCCN2)ccc1-c1cn(-c2ccc(C3=NCCN3)cc2)nn1', 'Mus musculus', 'Toxic'),
  ('Cl.Cl.c1cc(-c2cn(-c3ccc(C4=NCCN4)cc3)nn2)ccc1C1=NCCN1', 'Mus musculus', 'Toxic');

====

Consider the following molecules and their measured selectivity ratio readings.
Experiment: Selectivity index, ratio of IC50 for rat L6 cells to IC50 for Trypanosoma brucei rhodesiense STIB900
Format: toxicity, cell-based
Conditions: read-out: Ratio IC50
recorded metric: selectivity ratio

INSERT INTO assay_data (sample_smiles, recorded_metric, measurement) VALUES
  ('Oc1ccc(C2=NCCN2)cc1-n1cc(-c2cccc(C3=NCCN3)c2)nn1', 'selectivity ratio', '> 2'),
  ('Oc1ccc(C2=NCCN2)cc1-c1cn(-c2cccc(C3=NCCN3)c2)nn1', 'selectivity ratio', '> 16'),
  ('COc1cc(C(=N)NC(C)C)ccc1-c1cn(-c2cccc(C(=N)NC(C)C)c2)nn1', 'selectivity ratio', '> 242'),
  ('COc1ccc(C(=N)NC(C)C)cc1-n1cc(-c2ccc(C(=N)NC(C)C)cc2)nn1', 'selectivity ratio', '> 387'),
  ('COc1cc(C(=N)NC(C)C)ccc1-c1cn(-c2ccc(C(=N)NC(C)C)cc2)nn1', 'selectivity ratio', '> 826'),
  ('Cl.Cl.N=C(N)c1ccc(-c2cn(-c3cccc(C(=N)N)c3)nn2)cc1', 'selectivity ratio', 14300),
  ('COc1ccc(C2=NCCN2)cc1-c1cn(-c2cccc(C3=NCCN3)c2)nn1.Cl.Cl', 'selectivity ratio', '> 29300'),
  ('CC(C)NC(=N)c1cccc(-c2cn(-c3cc(C(=N)NC(C)C)ccc3O)nn2)c1', 'selectivity ratio', '> 12'),
  ('COc1ccc(C(=N)NC(C)C)cc1-c1cn(-c2ccc(C(=N)NC(C)C)cc2)nn1', 'selectivity ratio', '> 2300'),
  ('CC(C)NC(=N)c1ccc(-c2cn(-c3cc(C(=N)NC(C)C)ccc3O)nn2)cc1', 'selectivity ratio', '> 11'),
  ('COc1cc(C2=NCCN2)ccc1-n1cc(-c2cccc(C3=NCCN3)c2)nn1', 'selectivity ratio', '> 93'),
  ('COc1ccc(C(=N)N)cc1-c1cn(-c2ccc(C(=N)N)cc2)nn1.Cl.Cl', 'selectivity ratio', '> 24800'),
  ('COc1cc(C2=NCCN2)ccc1-c1cn(-c2ccc(C3=NCCN3)cc2)nn1', 'selectivity ratio', 1220),
  ('COc1cc(C(=N)NC(C)C)ccc1-n1cc(-c2ccc(C(=N)NC(C)C)cc2)nn1', 'selectivity ratio', '> 500'),
  ('N=C(N)c1ccc(-c2cn(-c3ccc(C(=N)N)cc3O)nn2)cc1', 'selectivity ratio', '> 431'),
  ('CC(C)NC(=N)c1cccc(-c2cn(-c3cccc(C(=N)NC(C)C)c3)nn2)c1', 'selectivity ratio', '> 12'),
  ('COc1cc(C(=N)N)ccc1-c1cn(-c2cccc(C(=N)N)c2)nn1.Cl.Cl', 'selectivity ratio', 32800),
  ('c1cc(C2=NCCN2)cc(-c2cn(-c3cccc(C4=NCCN4)c3)nn2)c1', 'selectivity ratio', '> 14'),
  ('c1cc(C2=NCCN2)cc(-n2cc(-c3ccc(C4=NCCN4)cc3)nn2)c1', 'selectivity ratio', 289),
  ('N=C(N)c1cccc(-c2cn(-c3cc(C(=N)N)ccc3O)nn2)c1', 'selectivity ratio', '> 4'),
  ('COc1ccc(C(=N)NC(C)C)cc1-c1cn(-c2cccc(C(=N)NC(C)C)c2)nn1', 'selectivity ratio', '> 141'),
  ('Cl.Cl.N=C(N)c1cccc(-c2cn(-c3cccc(C(=N)N)c3)nn2)c1', 'selectivity ratio', 2640),
  ('CC(C)NC(=N)c1cccc(-n2cc(-c3ccc(C(=N)NC(C)C)cc3O)nn2)c1.Cl.Cl', 'selectivity ratio', '> 2270'),
  ('Cl.Cl.Oc1cc(C2=NCCN2)ccc1-c1cn(-c2ccc(C3=NCCN3)cc2)nn1', 'selectivity ratio', '> 5000'),
  ('Oc1cc(C2=NCCN2)ccc1-n1cc(-c2ccc(C3=NCCN3)cc2)nn1', 'selectivity ratio', '> 198'),
  ('CC(C)NC(=N)c1ccc(-c2cn(-c3ccc(C(=N)NC(C)C)cc3O)nn2)cc1', 'selectivity ratio', '> 129'),
  ('COc1cc(C2=NCCN2)ccc1-n1cc(-c2ccc(C3=NCCN3)cc2)nn1', 'selectivity ratio', '> 261'),
  ('Cl.Cl.N=C(N)c1ccc(-n2cc(-c3ccc(C(=N)N)cc3O)nn2)cc1', 'selectivity ratio', 3080),
  ('Cl.Cl.N=C(N)c1ccc(-n2cc(-c3cc(C(=N)N)ccc3O)nn2)cc1', 'selectivity ratio', '> 36500'),
  ('COc1cc(C(=N)N)ccc1-n1cc(-c2cccc(C(=N)N)c2)nn1.Cl.Cl', 'selectivity ratio', '> 17500'),
  ('CC(C)NC(=N)c1cccc(-c2cn(-c3ccc(C(=N)NC(C)C)cc3O)nn2)c1', 'selectivity ratio', '> 10'),
  ('CC(C)NC(=N)c1ccc(-c2cn(-c3cccc(C(=N)NC(C)C)c3)nn2)cc1', 'selectivity ratio', 418),
  ('COc1ccc(C(=N)N)cc1-c1cn(-c2cccc(C(=N)N)c2)nn1', 'selectivity ratio', '> 121'),
  ('Cl.Cl.Oc1ccc(C2=NCCN2)cc1-c1cn(-c2ccc(C3=NCCN3)cc2)nn1', 'selectivity ratio', '> 4420'),
  ('COc1ccc(C2=NCCN2)cc1-n1cc(-c2ccc(C3=NCCN3)cc2)nn1', 'selectivity ratio', '> 1050');
